# target.desc: Peptide 1593 (…) (Mycobacterium tuberculosis)
# experiment.notes: indirect ELISA, supernatant on 1 ug/ml coated peptide
experimental.readout: OD450, supernatant undiluted (OD450)

Antibody 67G8-2 (antibody, V domains shown) VH: QSVEESGGRLVTPGTPLTLTCTVSGFSLGNYDGHWVRQTPEKGLEWIGVIATIGDTYYASWAKGRFSISKTSATVELRITSPTTEDTATYFCVRGDSRTSNEIFNLWGQGTLVTVSS VL: AVLTQTPSPVSAAVGGTLTINCQSTRSVHNNICLSWYQQKPGQPPKLLIYSASTLASGVPSRFKGSGSGTQFTLAINDVQCGDAATYYCAGCFPSKSDMYGFGGGTEVVVK : 3.22
Antibody 101G10-2 (antibody, V domains shown) VH: QSVEESGGRLVTPGTPLTLTCTVSGFSLSSYDMTWVRQAPGKGLEYIGVISYGGSAYYASWAKGRFTISKTSTTVDLKITSPTTEDTATYFCARGDSDGSSELFNLWGQGTLVTVSS VL: AVLTQTPSPVSAPVGGTVSINCQSSKSVYNNNCLSWYQQKPGQPPNLLIYGASTLASGVPSRFKGSGSGTQFTLTINDVQCDDAATYYCAGCFASTNDMYGFGGGSEVVVK : 3.23
Antibody 91B4-1 (antibody, V domains shown) VH: QSLEESGGRLVSPGGSLTLTCTVSGIDLSRFGVSWVRQAPGKGLEWTGYIHTDGNVYYASWAKGRFTISKTSTTVDLKMTSLTTEDTATYFCARGGYAADLWGQAALVTVSS VL: DPMLTQTPSSVSAAVGGTVTISCQSSESVYKNYLAWYQQKLGQPPKLLIGATSTLVSGVPSRFKGSGSRTQFSLTISDLECDDAATYYCVGGYTGKNVFGGGTEVVVK : 3.12
Antibody 135A6-1 (antibody, V domains shown) VH: QSVEESGGRLVTPGTPLTLTCTVSGFSLGNYDISWVRQAPGKGLEWIGVIATVGDTYYASWAKGRFTISKTSATVDLKITSPTTEDTATYFCVRGDSPSTNEIFGLWGQGTLVTVSS VL: AVLTQTPSPVSAAVGGTLTINCQSSRTVYNNICLSWYQQKLGQPPKLLIYGASTLTSGVPSRFRGSGSGTQFTLTINDVQCGDAATYYCAGCFPSTSDMYGFGGGTEVVVK : 3.27
